tested on: Amaranthus retoflexus (AMARE); test: Pre-emergence biological efficacy, glasshouse pot test; format: in vivo; settings: Amaranthus retroflexus, 312 h; pre-emergence, 1,000 g/ha, evaluated after 13 days (100=total damage; 0=no damage); read-out: Percentage damage AMARE
Please enter Criterion met where pest or weed control at 1000 g/ha is greater than or equal to 40%, and Criterion not met where it is lower.

Prompt line: Record COC(=O)c1nc(C2CC2)nc(NCC2CCCCC2)c1Cl [Compound 4-49] ; criterion: pest or weed control at 1000 g/ha no lower than 40%. Met?
Response line: Criterion not met

Prompt line: Record COC(=O)c1nc(C2CC2)nc(NCc2ccccc2N2CCOCC2)c1Cl [Compound 4-88] ; criterion: pest or weed control at 1000 g/ha no lower than 40%. Met?
Response line: Criterion met

Prompt line: Record COC(=O)c1nc(C2CC2)nc(N[C@H]2COC[C@H]2O)c1Cl [4-38 (S,S)] ; criterion: pest or weed control at 1000 g/ha no lower than 40%. Met?
Response line: Criterion met

Prompt line: Record COC(=O)c1nc(C2CC2)nc(NC2(c3ccccn3)CC2)c1Cl [Compound 4-10] ; criterion: pest or weed control at 1000 g/ha no lower than 40%. Met?
Response line: Criterion not met

---

I'd be grateful if you could share measured pest or weed control at 1000 g/ha for these entries.
test system: Solanum nigrum (SOLNI); assay: Pre-emergence biological efficacy, glasshouse pot test; format: in vivo; details: 312 h, pre-emergence, rate 1,000 g/ha, evaluated after 13 days (100=total damage to plant; 0=no damage), read-out: Percentage damage caused to weed species, SOLNI
Report the value in % with no unit label.

What the record says about `COC(=O)c1nc(C2CC2)nc(N(C)Cc2cccc(F)c2)c1Cl` : pest or weed control at 1000 g/ha is 90

What the record says about `CC(C)OC(=O)c1nc(C2CC2)nc(NCc2ccco2)c1Cl` : pest or weed control at 1000 g/ha is 90

What the record says about `COC(=O)c1nc(-c2cc(Cl)c(Cl)cc2Cl)nc(NCc2ccco2)c1Cl` : pest or weed control at 1000 g/ha is 0

What the record says about `O=C(NCc1ccccc1)c1nc(C2CC2)nc(NCc2ccccc2)c1Cl` : pest or weed control at 1000 g/ha is 10

What the record says about `COc1c(Cl)ccc(-c2nc(NCC3CC3)c(Cl)c(C(=O)O)n2)c1F` : pest or weed control at 1000 g/ha is 90

What the record says about `COC(=O)c1nc(-c2ccc(F)c(C(F)(F)F)c2)nc(NCc2ccco2)c1Cl` : pest or weed control at 1000 g/ha is 30

What the record says about `NC(=O)c1nc(C2CC2)nc(NCc2ccco2)c1Cl` : pest or weed control at 1000 g/ha is 70

What the record says about `COC(=O)c1nc(-c2ccc(Cl)s2)nc(NCc2ccco2)c1Cl` : pest or weed control at 1000 g/ha is 20

What the record says about `COC(=O)c1nc(C2CC2)nc(N(C)Cc2cccc(Cl)c2)c1Cl` : pest or weed control at 1000 g/ha is 20

What the record says about `CCN(Cc1ccc(OC)c(OC)c1)c1nc(C2CC2)nc(C(=O)OC)c1Cl` : pest or weed control at 1000 g/ha is 10

What the record says about `C=CCN(Cc1ccccc1)c1nc(C2CC2)nc(C(=O)OC)c1Cl` : pest or weed control at 1000 g/ha is 10

What the record says about `COC(=O)c1nc(-c2ccc(Cl)c(C(F)(F)F)c2F)nc(NCc2ccco2)c1Cl` : pest or weed control at 1000 g/ha is 70

What the record says about `COC(=O)c1nc(C2CC2)nc(N(CCO)Cc2cccnc2)c1Cl` : pest or weed control at 1000 g/ha is 20

What the record says about `COC(=O)c1nc(-c2ccc(Cl)cc2)nc(NCc2ccco2)c1Cl` : pest or weed control at 1000 g/ha is 80

What the record says about `COC(=O)c1nc(-c2ccc(OC(F)(F)F)cc2)nc(NCc2ccco2)c1Cl` : pest or weed control at 1000 g/ha is 20

What the record says about `COC(=O)c1nc(C2CC2)nc(N(C)Cc2ccco2)c1Cl` : pest or weed control at 1000 g/ha is 90

What the record says about `COC(=O)c1nc(-c2ccc(Cl)c(N(C)C)c2F)nc(NCc2ccco2)c1Cl` : pest or weed control at 1000 g/ha is 40

What the record says about `CCOC(=O)c1nc(C2CC2)nc(NCc2ccccc2)c1Cl` : pest or weed control at 1000 g/ha is 90

---

tested on: Amaranthus retoflexus (AMARE); assay: Pre-emergence biological efficacy, glasshouse pot test; format: in vivo; conditions: Amaranthus retroflexus, 312 h; pre-emergence, 1,000 g/ha, evaluated after 13 days (100=total damage; 0=no damage); read-out: Percentage damage AMARE
I'd be grateful if you could share measured pest or weed control at 1000 g/ha for these entries.
Report the value in % with no unit label.

Readout pest or weed control at 1000 g/ha for `CCCCOc1ccc(CNc2nc(C3CC3)nc(C(=O)OC)c2Cl)cc1` , test system Amaranthus retoflexus (AMARE), was 90

Readout pest or weed control at 1000 g/ha for COC(=O)c1nc(C2CC2)nc(NC(c2ccc(Cl)cc2)C2CC2)c1Cl (stereo not drawn) , test system Amaranthus retoflexus (AMARE), was 20

Readout pest or weed control at 1000 g/ha for COC(=O)c1nc(C2CC2)nc(N[C@@H](Cc2cccc(C(F)(F)F)c2)C(=O)OC)c1Cl [4-286 (S)] , test system Amaranthus retoflexus (AMARE), was 90

Readout pest or weed control at 1000 g/ha for `COC(=O)c1nc(C2CC2)nc(NCCCc2ccccc2)c1Cl` , test system Amaranthus retoflexus (AMARE), was 60

Readout pest or weed control at 1000 g/ha for `COC(=O)c1nc(C2CC2)nc(NC2(/C=C/c3c(F)cccc3F)CC2)c1Cl` , test system Amaranthus retoflexus (AMARE), was 20

Readout pest or weed control at 1000 g/ha for `COC(=O)c1nc(C2CC2)nc(NCc2cccs2)c1Cl` , test system Amaranthus retoflexus (AMARE), was 100

Readout pest or weed control at 1000 g/ha for `COC(=O)c1nc(C2CC2)nc(NC2(/C=C/c3ccc(F)cc3)CC2)c1Cl` , test system Amaranthus retoflexus (AMARE), was 50

Readout pest or weed control at 1000 g/ha for `COC(=O)c1nc(C2CC2)nc(NCc2ccc(N(C)C)cc2)c1Cl` , test system Amaranthus retoflexus (AMARE), was 100

Readout pest or weed control at 1000 g/ha for `COC(=O)c1nc(C2CC2)nc(N[C@H]2c3ccccc3C[C@H]2O)c1Cl` , test system Amaranthus retoflexus (AMARE), was 100

Readout pest or weed control at 1000 g/ha for `COC(=O)c1nc(C2CC2)nc(N[C@@H](c2ccccc2)[C@H](O)c2ccccc2)c1Cl` , test system Amaranthus retoflexus (AMARE), was 100

Readout pest or weed control at 1000 g/ha for COC(=O)c1nc(C2CC2)nc(NCC(F)c2ccccc2Br)c1Cl (stereo not drawn) , test system Amaranthus retoflexus (AMARE), was 10

Readout pest or weed control at 1000 g/ha for COC(=O)c1nc(C2CC2)nc(NC(Cc2ccccc2)c2ccccc2)c1Cl (stereo not drawn) , test system Amaranthus retoflexus (AMARE), was 20

Readout pest or weed control at 1000 g/ha for COC(=O)c1nc(C2CC2)nc(NCC(C)(F)c2cccc(Cl)c2)c1Cl (stereo not drawn) , test system Amaranthus retoflexus (AMARE), was 30

Readout pest or weed control at 1000 g/ha for COC(=O)c1nc(C2CC2)nc(NC(C)C(O)c2ccc(O)cc2)c1Cl (stereo not drawn) , test system Amaranthus retoflexus (AMARE), was 100

Readout pest or weed control at 1000 g/ha for COC(=O)c1nc(C2CC2)nc(N[C@H](CO)Cc2ccccc2)c1Cl [4-273 (S)] , test system Amaranthus retoflexus (AMARE), was 100

Readout pest or weed control at 1000 g/ha for COC(=O)c1nc(C2CC2)nc(NC(C)c2ccccc2)c1Cl (stereo not drawn) , test system Amaranthus retoflexus (AMARE), was 80

Readout pest or weed control at 1000 g/ha for COC(=O)c1nc(C2CC2)nc(NCC(F)c2ccc(Br)cc2F)c1Cl (stereo not drawn) , test system Amaranthus retoflexus (AMARE), was 30

Readout pest or weed control at 1000 g/ha for `COC(=O)c1nc(C2CC2)nc(N[C@@H](C)[C@H](O)c2ccccc2)c1Cl` , test system Amaranthus retoflexus (AMARE), was 70

---

system: Echinochloa crus-galli (ECHCG); test: Pre-emergence biological efficacy, glasshouse pot test; assay type: in vivo; conditions: 312 h, pre-emergence, rate 1,000 g/ha, evaluated after 13 days (100=total damage to plant; 0=no damage), read-out: Percentage damage caused to weed species, ECHCG
measured_parameter: pest or weed control at 1000 g/ha (%)
Report the value in % with no unit label.

What the record says about `COC(=O)c1nc(-c2cccc(OC)c2F)nc(NCc2ccco2)c1Cl` : pest or weed control at 1000 g/ha is 0

What the record says about `COC(=O)c1nc(-c2ccc(Cl)c(C(F)(F)F)c2)nc(NCc2ccco2)c1Cl` : pest or weed control at 1000 g/ha is 0

What the record says about `COC(=O)c1nc(C2CC2)nc(N(C)Cc2cccc(OC)c2)c1Cl` : pest or weed control at 1000 g/ha is 0

What the record says about `COC(=O)c1nc(-c2ccc(Cl)c(F)c2F)nc(NCc2ccco2)c1Cl` : pest or weed control at 1000 g/ha is 30

What the record says about `COC(=O)c1nc(-c2ccc(OC)cc2)nc(NCc2ccco2)c1Cl` : pest or weed control at 1000 g/ha is 0

What the record says about `COC(=O)c1nc(C2CC2)nc(N(CC=C(C)C)Cc2ccccc2C(F)(F)F)c1Cl` : pest or weed control at 1000 g/ha is 10

What the record says about `COCCN(C/C=C/c1ccco1)c1nc(C2CC2)nc(C(=O)OC)c1Cl` : pest or weed control at 1000 g/ha is 0

What the record says about `COC(=O)c1nc(C2CC2)nc(N(CCC#N)Cc2ccccc2)c1Cl` : pest or weed control at 1000 g/ha is 0

What the record says about `COC(=O)c1nc(-c2ccc(C(F)(F)F)cc2C(F)(F)F)nc(NCc2ccco2)c1Cl` : pest or weed control at 1000 g/ha is 10

What the record says about `CCN(Cc1ccnc(C)n1)c1nc(C2CC2)nc(C(=O)OC)c1Cl` : pest or weed control at 1000 g/ha is 0

What the record says about `COC(=O)c1nc(-c2ccc(Cl)cc2)nc(NC2CC2)c1Cl` : pest or weed control at 1000 g/ha is 50

What the record says about `Cc1c(NCC2CC2)nc(C2CC2)nc1OCC(=O)NCC1CC1` : pest or weed control at 1000 g/ha is 0

What the record says about `COC(=O)c1nc(C2CC2)nc(N(Cc2ccccc2)C[Si](C)(C)C)c1Cl` : pest or weed control at 1000 g/ha is 40

What the record says about `C=CCN(Cc1ccc(Cl)s1)c1nc(C2CC2)nc(C(=O)OC)c1Cl` : pest or weed control at 1000 g/ha is 0

What the record says about `COC(=O)c1nc(-c2ccc(C)c(F)c2)nc(NCc2ccco2)c1Cl` : pest or weed control at 1000 g/ha is 0

What the record says about `COC(=O)c1nc(Cl)nc(NCc2ccco2)c1Cl` : pest or weed control at 1000 g/ha is 10

What the record says about `COC(=O)c1nc(-c2ccc(Cl)s2)nc(NCc2ccco2)c1Cl` : pest or weed control at 1000 g/ha is 0

What the record says about `CCN(Cc1ccccc1)c1nc(C2CC2)nc(C(=O)OC)c1Cl` : pest or weed control at 1000 g/ha is 20

What the record says about `COC(=O)c1nc(C2CC2)nc(N(CCO)Cc2ccc(Cl)nc2)c1Cl` : pest or weed control at 1000 g/ha is 20

What the record says about `NC(=O)c1nc(C2CC2)nc(NCc2ccco2)c1Cl` : pest or weed control at 1000 g/ha is 0

What the record says about `COC(=O)c1nc(-c2ccc(Cl)cc2)nc(NCc2ccccc2)c1Cl` : pest or weed control at 1000 g/ha is 50

What the record says about `COC(=O)c1nc(-c2ccc(Cl)cc2)nc(NCc2ccco2)c1Cl` : pest or weed control at 1000 g/ha is 50

What the record says about `COC(=O)c1nc(-c2ccc(OC)cc2F)nc(NCc2ccco2)c1Cl` : pest or weed control at 1000 g/ha is 0

What the record says about `CCOC(=O)CCN(Cc1ccccc1)c1nc(C2CC2)nc(C(=O)OC)c1Cl` : pest or weed control at 1000 g/ha is 20

What the record says about `COC(=O)c1nc(-c2ccc(C)c(C)c2)nc(NCc2ccco2)c1Cl` : pest or weed control at 1000 g/ha is 0

What the record says about COC(=O)c1nc(C2CC2)nc(N(Cc2ccccc2)CC(O)c2ccccc2)c1Cl (centres unmarked) : pest or weed control at 1000 g/ha is 10

What the record says about `COC(=O)c1nc(Cl)nc(NCc2ccc(C)o2)c1Cl` : pest or weed control at 1000 g/ha is 0

What the record says about `COC(=O)c1nc(-c2ccc(F)c(OC)c2)nc(NCc2ccco2)c1Cl` : pest or weed control at 1000 g/ha is 0

What the record says about `CCN(Cc1ccc(C)o1)c1nc(C2CC2)nc(C(=O)OC)c1Cl` : pest or weed control at 1000 g/ha is 60

What the record says about COC(=O)c1nc(C2CC2)nc(N[C@@H](Cc2ccccc2)C(=O)OC(C)(C)C)c1Cl [4-293 (S)] : pest or weed control at 1000 g/ha is 20

What the record says about `CCN(c1nc(C2CC2)nc(C(=O)OC)c1Cl)C1CCCCC1` : pest or weed control at 1000 g/ha is 0

What the record says about `COC(=O)c1nc(-c2ccc(OC)cc2OC)nc(NCc2ccco2)c1Cl` : pest or weed control at 1000 g/ha is 0

What the record says about `COC(=O)c1nc(-c2ccc(Cl)c(OC)c2F)nc(NCC2CC2)c1Cl` : pest or weed control at 1000 g/ha is 60

What the record says about `CCN(Cc1c(F)cccc1Cl)c1nc(C2CC2)nc(C(=O)OC)c1Cl` : pest or weed control at 1000 g/ha is 0

What the record says about `COC(=O)c1nc(-c2ccc(OC)c(F)c2)nc(NCc2ccco2)c1Cl` : pest or weed control at 1000 g/ha is 0
